Study the reported pIC50 values for Receptor tyrosine-protein kinase erbB-2 (Homo sapiens, UniProt P04626) given below; they originate from different publications.
pIC50: −log10 of the molar value.

Before answering, review these 3 worked examples.
• CC(C)c1nc(-c2ccc(F)c(NS(=O)(=O)c3c(F)cccc3F)c2)c(-c2ccnc(Nc3ccncn3)n2)s1 = < 6.00
• CN1CCC(c2nc(-c3ccc(F)c(NS(=O)(=O)c4c(F)cccc4F)c3)c(-c3ccnc(Nc4ccc(N5CCOCC5)nc4)n3)s2)CC1 = 6.00 to 7.00
• Nc1ncnc(NCc2ccc3c(c2)OCO3)c1C=NCc1ccc2c(c1)OCO2 = < 5.00

Here COc1cc(N2CCN(CCS(C)(=O)=O)CC2)c(C)cc1Nc1nccc(-c2scnc2-c2cccc(NS(=O)(=O)c3c(F)cccc3F)c2)n1 was tested on Receptor tyrosine-protein kinase erbB-2 (Homo sapiens, UniProt P04626), and its pIC50 came to > 7.00

Here COc1cc(N2CCN(CCS(C)(=O)=O)CC2)c(C)cc1Nc1nccc(-c2sc(C)nc2-c2cccc(NS(=O)(=O)c3c(F)cccc3F)c2)n1 was tested on Receptor tyrosine-protein kinase erbB-2 (Homo sapiens, UniProt P04626), and its pIC50 came to 6.00 to 7.00

Here COc1ccc(Nc2ncnc(NCC(=O)c3ccccc3)n2)cc1OC was tested on Receptor tyrosine-protein kinase erbB-2 (Homo sapiens, UniProt P04626), and its pIC50 came to 5.02 to 5.18

Here CO/N=C/c1c(N)ncnc1Nc1ccc2nn(Cc3cccc(F)c3)cc2c1 was tested on Receptor tyrosine-protein kinase erbB-2 (Homo sapiens, UniProt P04626), and its pIC50 came to 5.43

Here CNS(=O)(=O)Cc1ccc(Nc2ncnc(Nc3ccc4c(cnn4Cc4ccccc4)c3)n2)cc1 was tested on Receptor tyrosine-protein kinase erbB-2 (Homo sapiens, UniProt P04626), and its pIC50 came to 5.32 to 6.10

Here COc1ccc(Nc2nccc(-c3sc(C(C)C)nc3-c3cccc(NS(=O)(=O)c4ccccc4)c3)n2)cc1N1CCN(CCC#N)CC1 was tested on Receptor tyrosine-protein kinase erbB-2 (Homo sapiens, UniProt P04626), and its pIC50 came to > 7.00

====

Study the reported IC50 values for Receptor tyrosine-protein kinase erbB-2 (Homo sapiens, UniProt P04626) given below; they originate from different publications.

Before answering, review these 3 worked examples.
* COc1cc(Nc2ncnc(Nc3ccc(C)c(O)c3)n2)cc(OC)c1OC | < 1.04 µM
* O=C(/C=C/CN1CCCCC1)N1CCOc2c1ccc1ncnc(Nc3ccc(Oc4ccccc4)c(F)c3)c21 | ≤ 0.05 µM
* CCc1ccc(Nc2ncnc(-n3c(N)nc4ccccc43)n2)cc1 | 1.21 to 7.24 µM

In plain terms, C=CC(=O)N1C[C@H]2C[C@@H](C1)[C@H]2Oc1cc2c(Nc3ccc(C#N)c(Cl)c3)ncnc2cc1OC has a documented IC50 of 0.003 µM

In plain terms, CCNc1nc(-c2cccc(OC)c2)c(-c2ccnc(Nc3ccc(OCCN4CCCC4)c(F)c3)n2)s1 has a documented IC50 of < 0.1 µM

In plain terms, COc1cc(Nc2ncnc(Nc3ccc(Br)c4ccccc34)n2)cc(OC)c1OC has a documented IC50 of < 0.829 µM

In plain terms, CC(=O)N1CCN(c2ccc(Nc3nccc(-c4sc(C(C)C)nc4-c4cccc(NS(=O)(=O)c5ccccc5F)c4)n3)cn2)CC1 has a documented IC50 of 0.1 to 1 µM

In plain terms, CN(C)C/C=C/C(=O)N1CCOc2c1ccc1ncnc(Nc3ccc(OCc4nccs4)cc3)c21 has a documented IC50 of ≤ 0.05 µM
